Biological target: T1, human AMHRII (anti-Mullerian hormone receptor type 2) (human, UniProt Q16671 18-573)
T1 construct: whole, on cells; also called AMHR2; human AMHR2
T1 sequence (looked up): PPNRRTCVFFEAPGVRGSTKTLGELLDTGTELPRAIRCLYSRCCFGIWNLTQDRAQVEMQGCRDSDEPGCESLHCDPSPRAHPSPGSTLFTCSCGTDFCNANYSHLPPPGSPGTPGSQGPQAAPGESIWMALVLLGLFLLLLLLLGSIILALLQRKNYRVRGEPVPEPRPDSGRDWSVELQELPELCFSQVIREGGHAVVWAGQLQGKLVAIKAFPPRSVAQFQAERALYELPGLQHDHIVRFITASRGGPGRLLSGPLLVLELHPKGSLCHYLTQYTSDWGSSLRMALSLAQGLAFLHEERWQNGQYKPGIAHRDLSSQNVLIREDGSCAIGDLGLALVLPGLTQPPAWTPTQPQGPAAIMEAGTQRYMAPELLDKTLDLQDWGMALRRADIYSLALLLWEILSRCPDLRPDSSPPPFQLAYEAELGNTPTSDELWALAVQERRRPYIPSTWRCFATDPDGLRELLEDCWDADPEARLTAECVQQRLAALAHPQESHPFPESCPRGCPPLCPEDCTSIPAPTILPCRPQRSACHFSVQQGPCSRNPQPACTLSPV
Experiment: FACS on CHO-K1 cells over-expressing human AMHR2
pEC50: −log10 of the molar value.
Measured pEC50 by item
assayReadout: pEC50

>>> recordedvalue("108F3D1E9 H3L2 hIgG1 (antibody, V domains shown, Humanized, human IgG1; also called 108F3D1E9 H3L2 hlgG1) VH: QVQLQESGPGLVKPSETLSLTCTVSGYSITSDFAWNWIRQFPGKGLEWMGYISFSGSTSYNPSLKSRITISRDTSKNQFSLKLSSVTAADTAVYYCAGSRYSWFAYWGQGTLVTVSS VL: DIQLTQSPSSLSASVGDRVTITCRASESVDTYGNSFMHWYQQKPGKPPKLLIYRASNLESGIPSRFSGSGSGTDFTLTISSLQPEDFATYYCQQSNEDPYTFGGGTKVEIK")
9.09
>>> recordedvalue("108F3D1E9 H4L2 hIgG1 (antibody, V domains shown, Humanized, human IgG1; also called 108F3D1E9 H4L2 hlgG1) VH: QVQLQESGPGLVKPSETLSLTCTVSGYSITSDFAWNWIRQFPGKGLEWMGYISFSGSTSYNPSLKSRITISRDTSKNQFFLQLSSVTAEDTAVYYCAGSRYSWFAYWGQGTLVTVSS VL: DIQLTQSPSSLSASVGDRVTITCRASESVDTYGNSFMHWYQQKPGKPPKLLIYRASNLESGIPSRFSGSGSGTDFTLTISSLQPEDFATYYCQQSNEDPYTFGGGTKVEIK")
9.17
>>> recordedvalue("108F3D1E9 H4L1 hIgG1 (antibody, V domains shown, Humanized, human IgG1; also called 108F3D1E9 H4L1 hlgG1) VH: QVQLQESGPGLVKPSETLSLTCTVSGYSITSDFAWNWIRQFPGKGLEWMGYISFSGSTSYNPSLKSRITISRDTSKNQFFLQLSSVTAEDTAVYYCAGSRYSWFAYWGQGTLVTVSS VL: DIQMTQSPSSLSASVGDRVTITCRASESVDTYGNSFMHWYQQKPGKAPKLLIYRASNLESGVPSRFSGSGSGTDFTLTISSLQPEDFATYYCQQSNEDPYTFGGGTKVEIK")
9.26
>>> recordedvalue("xi108F3D1E9 hIgG1 (antibody, V domains shown, Murine variable domains in human chimeric format, human IgG1; also called xi108F3D1E9 hlgG1; 108F3D1E9 (chimeric)) VH: DVQLQESGPGLVKPSQSLSLTCTVTGYSITSDFAWNWIRQFPGNKLEWMGYINFSGSTSYNPSLKSRISITRDTSKNQFFLQLNSVTTEDTATYYCAGSRYSWFAYWGQGTLVTVSA VL: DIVLTQSPASLAVSLGQRATISCRASESVDTYGNSFMHWYQQKPGQPPKLLIYRASNLESGIPARFSGSGSRTDFTLTINPVEADDVATYYCQQSNEDPYTFGGGTKLEIK")
8.98
>>> recordedvalue("108F3D1E9 H3L4 hIgG1 (antibody, V domains shown, Humanized, human IgG1; also called 108F3D1E9 H3L4 hlgG1) VH: QVQLQESGPGLVKPSETLSLTCTVSGYSITSDFAWNWIRQFPGKGLEWMGYISFSGSTSYNPSLKSRITISRDTSKNQFSLKLSSVTAADTAVYYCAGSRYSWFAYWGQGTLVTVSS VL: DIVLTQSPSSLSVSVGDRATITCRASESVDTYGNSFMHWYQQKPGQPPKLLIYRASNLESGIPARFSGSGSRTDFTLTISSVQPEDFATYYCQQSNEDPYTFGGGTKLEIK")
9.06
>>> recordedvalue("108F3D1E9 H3L3 hIgG1 (antibody, V domains shown, Humanized, human IgG1; also called 108F3D1E9 H3L3 hlgG1) VH: QVQLQESGPGLVKPSETLSLTCTVSGYSITSDFAWNWIRQFPGKGLEWMGYISFSGSTSYNPSLKSRITISRDTSKNQFSLKLSSVTAADTAVYYCAGSRYSWFAYWGQGTLVTVSS VL: DIVLTQSPSSLSASVGDRVTITCRASESVDTYGNSFMHWYQQKPGQPPKLLIYRASNLESGIPARFSGSGSGTDFTLTISSVQPEDFATYYCQQSNEDPYTFGGGTKVEIK")
9.09
